target: Receptor tyrosine-protein kinase erbB-2 (Homo sapiens)
Sequence (P04626 whole entry): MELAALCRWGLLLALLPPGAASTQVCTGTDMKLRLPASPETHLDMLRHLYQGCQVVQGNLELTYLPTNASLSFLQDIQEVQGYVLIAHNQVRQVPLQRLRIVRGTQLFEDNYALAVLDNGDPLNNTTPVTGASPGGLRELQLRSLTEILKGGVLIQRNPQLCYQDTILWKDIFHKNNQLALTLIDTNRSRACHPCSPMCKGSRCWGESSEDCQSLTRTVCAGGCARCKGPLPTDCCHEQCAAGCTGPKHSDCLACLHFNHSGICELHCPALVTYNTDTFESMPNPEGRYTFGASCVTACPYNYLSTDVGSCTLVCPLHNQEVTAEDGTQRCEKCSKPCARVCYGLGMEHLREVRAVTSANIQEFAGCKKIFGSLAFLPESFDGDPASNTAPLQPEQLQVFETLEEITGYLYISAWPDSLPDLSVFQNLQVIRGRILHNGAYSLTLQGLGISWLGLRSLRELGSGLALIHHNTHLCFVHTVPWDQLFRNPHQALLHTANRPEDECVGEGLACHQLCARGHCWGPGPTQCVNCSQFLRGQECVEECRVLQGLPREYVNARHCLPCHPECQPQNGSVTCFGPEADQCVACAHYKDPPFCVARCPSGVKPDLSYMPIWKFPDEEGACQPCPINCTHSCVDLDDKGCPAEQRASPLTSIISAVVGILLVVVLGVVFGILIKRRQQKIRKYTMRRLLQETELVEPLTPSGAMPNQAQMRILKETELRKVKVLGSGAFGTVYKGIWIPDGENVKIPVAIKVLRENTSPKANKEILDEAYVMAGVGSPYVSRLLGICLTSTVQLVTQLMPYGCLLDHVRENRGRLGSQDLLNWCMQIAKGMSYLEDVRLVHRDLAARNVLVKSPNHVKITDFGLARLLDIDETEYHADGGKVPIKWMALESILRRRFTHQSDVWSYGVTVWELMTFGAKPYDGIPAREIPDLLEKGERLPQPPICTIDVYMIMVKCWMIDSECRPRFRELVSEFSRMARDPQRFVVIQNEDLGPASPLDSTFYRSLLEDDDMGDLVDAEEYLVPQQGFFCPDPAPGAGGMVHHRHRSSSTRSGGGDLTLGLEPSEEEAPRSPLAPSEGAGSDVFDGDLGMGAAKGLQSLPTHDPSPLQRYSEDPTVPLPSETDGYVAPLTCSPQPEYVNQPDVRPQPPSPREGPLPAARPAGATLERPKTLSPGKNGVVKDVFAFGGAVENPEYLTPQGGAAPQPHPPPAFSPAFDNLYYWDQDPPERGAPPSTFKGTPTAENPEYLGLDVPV
measured_attribute: pIC50
pIC50 field: float, defined as -log10 of concentration (mol/L).

State measured pIC50 of the compound COC1=CC(=O)C=CC1=O with Receptor tyrosine-protein kinase erbB-2 (Homo sapiens). 4.54

---

target: Vascular endothelial growth factor receptor 3 (Homo sapiens); assay: Inhibition of Vascular endothelial growth factor receptor 3 (No effect)
Sequence (P35916 whole entry): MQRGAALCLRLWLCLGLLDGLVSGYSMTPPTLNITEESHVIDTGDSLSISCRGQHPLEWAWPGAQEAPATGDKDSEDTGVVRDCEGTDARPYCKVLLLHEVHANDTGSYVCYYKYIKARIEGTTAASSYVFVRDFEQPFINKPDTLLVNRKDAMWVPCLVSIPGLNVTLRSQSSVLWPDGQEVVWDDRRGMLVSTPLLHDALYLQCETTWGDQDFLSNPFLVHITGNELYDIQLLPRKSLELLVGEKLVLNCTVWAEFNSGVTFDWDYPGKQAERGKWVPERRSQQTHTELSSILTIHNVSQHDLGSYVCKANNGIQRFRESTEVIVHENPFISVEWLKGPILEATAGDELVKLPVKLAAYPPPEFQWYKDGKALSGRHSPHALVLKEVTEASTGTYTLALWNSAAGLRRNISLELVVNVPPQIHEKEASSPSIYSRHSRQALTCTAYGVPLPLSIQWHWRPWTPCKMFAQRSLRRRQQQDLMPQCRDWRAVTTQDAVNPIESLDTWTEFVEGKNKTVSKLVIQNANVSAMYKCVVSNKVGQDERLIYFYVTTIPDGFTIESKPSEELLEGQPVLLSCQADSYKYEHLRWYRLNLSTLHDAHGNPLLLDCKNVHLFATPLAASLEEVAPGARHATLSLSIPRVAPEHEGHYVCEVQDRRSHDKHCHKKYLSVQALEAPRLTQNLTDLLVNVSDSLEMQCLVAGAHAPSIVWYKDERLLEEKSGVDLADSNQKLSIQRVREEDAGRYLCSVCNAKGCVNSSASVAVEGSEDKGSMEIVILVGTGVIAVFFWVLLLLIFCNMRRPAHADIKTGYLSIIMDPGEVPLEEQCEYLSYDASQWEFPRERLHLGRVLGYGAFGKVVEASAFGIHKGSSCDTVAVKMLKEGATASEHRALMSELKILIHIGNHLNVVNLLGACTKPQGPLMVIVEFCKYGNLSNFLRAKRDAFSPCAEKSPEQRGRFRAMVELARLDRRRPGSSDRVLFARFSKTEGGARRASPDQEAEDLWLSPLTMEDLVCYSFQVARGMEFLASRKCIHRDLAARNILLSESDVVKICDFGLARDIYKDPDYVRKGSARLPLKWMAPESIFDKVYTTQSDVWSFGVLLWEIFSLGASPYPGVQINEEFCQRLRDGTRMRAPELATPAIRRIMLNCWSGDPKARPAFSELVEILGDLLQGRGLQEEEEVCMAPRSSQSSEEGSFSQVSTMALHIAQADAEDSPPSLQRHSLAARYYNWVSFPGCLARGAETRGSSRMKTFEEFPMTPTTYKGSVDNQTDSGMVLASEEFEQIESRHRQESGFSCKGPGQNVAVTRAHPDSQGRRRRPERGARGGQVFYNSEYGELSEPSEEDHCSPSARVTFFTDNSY
Active and inactive are the calls of the source. No cut-off for these calls is given here.
measured_attribute: NI

COC1=CC(=O)C=C(Cc2ccccc2)C1=O : inactive
COC1=CC(=O)C=C(/C=C2\CCCC3CCCCC23)C1=O (stereo unspecified) : inactive
COC1=CC(=O)C(N[C@@H](CO)C(=O)O)=CC1=O : inactive
CC1=CCC[C@H]2[C@](C)(CC3=C(O)C(O)=C/C(=N\[C@@H](CO)C(=O)O)C3=O)[C@H](C)CC[C@]12C : inactive
CC(O)C(/N=C1\C(O)=CC(=O)C(O)=C1CC1CCCC2CCCCC21)C(=O)O (stereo unspecified) : inactive

--- query ---
Indicate the recorded NI value for this compound: COC1=CC(=O)C=CC1=O inactive
